# melting point per entry

These solved cases illustrate the format of a correct answer.
CCOC(=O)c1c[nH]c(Br)c1-c1cccc(F)c1
114 to 117 °C
Clc1ncc(Cl)c(NC2CCCCC2)n1
93 to 94 °C
COc1cccc(NC(=O)N=C2CCCN2C)c1
123 to 125 °C

Now look at this entry.
Kindly note the recorded melting point for Cc1ccc(Cl)cc1N1CN(C)CN(C)C1=S , which is 157 to 159 °C

----------
# Lookup of reported melting point keyed by entry

CNC(=S)NCCS(=O)Cc1cncn1C (stereo not given)
139 to 140 °C
CCCCCCCCNc1nc(Cl)nc(NCCCCCCCC)n1
171 to 172 °C
Clc1ccc2[nH]c3c4ccccc4nc-3c(Cl)c2c1
281 to 282 °C
CCn1ncnc1COc1nn2c(-c3ccccc3F)nncc2c1-c1ccccc1
171 to 173 °C
COc1ccc(P(=O)(c2ccccc2)c2ccccc2)cc1OC
154 to 156 °C
CC1(C)CC(=C(c2ccc(O)cc2)c2ccc(F)cc2)CC(C)(C)C1
134 to 135 °C
Cc1ccccc1Sc1cccc(C(C)C(=O)O)c1O (stereo not given)
123 to 125 °C
O=C(c1c(F)cccc1F)N1COCN(c2ccc(S(=O)C(F)F)cc2F)C1=O (stereo not given)
138 to 140 °C
CCCCc1nc2c(N)nc3ccc(OCC(=O)N(C)Cc4ccccc4)cc3c2n1C
167 to 169 °C

Record summary for Cc1cc(=O)n(C)c2[nH]n(-c3ccccc3)c(=O)c12 : reported melting point = 179 to 181 °C

----------
measurement-kind: melting point

Known results for molecules:
CCCc1c(OCC2Cc3cc(CC(=O)OC)ccc3O2)ccc(C(C)=O)c1O (stereo not drawn)
77 to 78 °C
CCOC(=O)c1ccn2c(=O)c(CC)c(C)nc2c1
95 to 96 °C

Now consider the entry below.
What the record says about Cc1cc(-c2nc3cc(Cl)cc(CCc4ccccn4)c3o2)[nH]n1 : melting point is 205 to 220 °C

----------
measurement-kind: melting point

Consider the reported melting point for these molecules:
c1ccc(CNn2cccc2)cc1
39 to 41 °C
Cc1ccc(S(=O)(=O)OCC2Cc3ccc(O)cc3O2)cc1 (stereo not drawn)
107 to 110 °C

Continue with the molecule presented below.
Value of melting point reported for the molecule CCCc1nc2c(N)nc3cc(F)ccc3c2o1 is 184 to 187 °C

----------
measurement-kind: melting point

Illustrative cases are given below, each with its answer.
Nc1ccc(Sc2cc(Cl)cc(Cl)c2)c(Cl)c1
157 to 160 °C
Cc1cccc(-c2[nH]c(C(C)C)nc2-c2cccc(-c3ccc(C(N)=O)cn3)c2)n1
138 to 144 °C
CCOc1ccc(-c2ncc[nH]2)cc1
168 to 169 °C
COc1ccc(Oc2cc3nc(-c4ccccc4)oc3cc2[N+](=O)[O-])cc1
142 to 146 °C

Shifting focus to the compound that follows.
Please fill in: melting point reported for O=C(Cc1ccc(OCc2ccccc2)cc1OCc1ccccc1)N1CCN(Cc2ccccc2)CC1 = 104 to 106 °C

----------
Item-by-item account of melting point

Recorded melting point, per entry:
CC(=NO)C(C)(C)NCC(CNC(C)(C)C(C)=NO)CC(O)CC1([N+](=O)[O-])N=CC=N1 (stereo not drawn)
185 to 187 °C
CN1C(=NCCCCn2ccnc2)c2cccc3cccc1c23
126 to 127 °C
COC(=O)c1ccc(C(C)(O)c2cc3cc(Cl)ccc3n2S(=O)(=O)c2ccc(C(C)C)cc2)cc1 (stereo not drawn)
163 °C
O=C(NCCO)c1cccc(-c2ccc3c(c2)C(Oc2ccc(Cl)cc2Cl)CCC3)c1 (stereo not drawn)
171 to 172 °C
CCCCCCCCCCCC1Cc2cc(C(=O)O)ccc2N1C (racemic)
102 to 104 °C

Consider COc1cccc(C=C2C(=O)c3ccccc3N2C(C)=O)c1[N+](=O)[O-] . Its measured melting point is 161 to 162 °C

Entry CC(C)(C)OC(=O)N1CCC(OCc2ccccc2)C1CC(=O)Cn1cnc2ccc(F)c(F)c2c1=O (stereo not drawn) , melting point reported as 211 °C

Memo: CN(C)Cc1cccc(Cc2cnc(N[N+](=O)[O-])[nH]c2=O)c1 , reported melting point: 232 to 235 °C

For CNCc1cc2c(=O)c(C(=O)NCc3ccc(Cl)cc3)cn(C)c2s1 the compound record lists melting point as 196 to 199 °C

Measured melting point, C=C(C(=O)OC(C)(C)C)C(O)c1ccc(C(=O)OC)cc1 (stereo not drawn) : 70 °C

Recorded result, O=c1c2ccccc2n(Cc2ccccc2)n2cccc12 , melting point: 146 to 148 °C

# melting point of CCc1nc(CO)n(CC)c1Sc1cc(C#N)cc(C#N)c1 = 141 to 143 °C

----------
# maps each entry to its melting point

The examples below pair each entry with its known result.
O=C(O)CCCc1ccc(-c2ccccc2Br)cc1
148 to 149 °C
CNc1nc(Cl)cc(NS(=O)(=O)c2cccc(C(F)(F)F)c2)n1
190 to 193 °C
CC(=O)N[C@H]1CC[C@H](CCN2CCN(c3nc(C)cc4c3CCO4)CC2)CC1
218 °C

Lab note: next compound to report on.
Briefly, melting point measured for COc1ccc(-c2nc(NC(=O)c3cccnc3)sc2-c2ccnc(NC(=O)c3cccnc3)c2)cc1 : 229 to 232 °C

----------
measurement-kind: melting point

Measured melting point of Cc1cnc2c(C#N)c(C)nn2c1-c1ccccc1 : 208 to 210 °C

For O=Cc1cccn1Cc1ccccc1[N+](=O)[O-] the molecule record lists melting point as 128 to 132 °C

Short answer for Cn1ncc2c1-c1c(Oc3ccc4c(c3)OCO4)sc(C(=O)NCc3ccncc3)c1CC2 : melting point was 202 to 204 °C

Given item CNc1ccc(C=CC(=O)c2ccc(NC)cc2)cc1 , the value recorded as its melting point is 150 to 151 °C

For CS(=O)(=O)c1ccc(-c2cnn(Cc3ccccc3)c(=O)c2-c2ccc(Cl)c(Cl)c2)cc1 the molecule record lists melting point as 161 to 163 °C

// N#Cc1cc(Br)c(O)c([N+](=O)[O-])c1 : melting point value = 162 to 164 °C

----------
Measured melting point accompanies every entry in the list below.

Here are 3 compounds together with their reported answers.
C=CCC(CC)(NC)C(=O)c1ccc(OCCO)cc1 (centres undefined)
80 to 82 °C
C[C@]1(COc2ccc(N3CCC(Cc4ccc(Cl)cc4)CC3)cc2)Cn2cc([N+](=O)[O-])nc2O1
207 to 211 °C
CC1(C)C=C(c2cccnc2)c2cc(C#N)ccc2OC1
150 °C

Turning now to a further record.
For record Cc1ccc(CC#N)c(OCc2ccc(OCc3nc(-c4ccccc4)oc3C)cc2)n1 the listed melting point is 122 to 123 °C

----------
Reported melting point is given for each of the following compounds.

Guide cases for melting point, answers given:
CC(C)(C)c1ccc(-c2cc(-c3ccccc3)c(-c3ccccc3)s2)cc1
108 to 112 °C
COc1cc(C(C)(C)CC(C)(C)C)c(OC)cc1C(=O)CCC(=O)O
142 °C
O=C(CCC(=O)N(CCCOc1ccc(C(=O)O)cc1)c1ccc(Cl)cc1)Nc1ccc(Cl)cc1
197 to 201 °C
O=C(Nc1c(C(O)(C(F)(F)F)C(F)(F)F)ccc2ccccc12)c1ccccc1
190 to 192 °C
COC(=O)c1ccc(-c2cc(-c3ccc4c(c3)C(C)(C)CCC4(C)C)[nH]n2)cc1
155 to 156 °C

Record O=C(O)c1ccc2nc3n(c(=O)c2c1)CCC3=Cc1ccccc1 , field melting point: 285 to 287 °C

Noted for Oc1ccc2c(c1)CCCC(c1ccccc1)=C2c1ccc(OCCCCCSCc2ccccn2)cc1 : its melting point reads 159 °C

// sample FC(F)(F)c1cccc(Nc2ccccc2-c2n[nH]c(=S)o2)c1 , its melting point was 211 to 213 °C

Data point: O=C(Nc1ccccc1)c1cccc([N+](=O)[O-])c1C(=O)Nc1ccccc1 ; melting point = 139 to 141 °C

Reported melting point ( c1cn(-c2ccc(N3CCNCC3)cc2)cn1 ) = 177 to 180 °C

The compound CCCCn1c(=O)c2cn(S(=O)(=O)c3cc(Cl)c(Cl)s3)nc2n(CCCC)c1=O showed melting point equal to 181 to 182 °C

CC(C)(C)OC(=O)N[C@@H](CC(N)=O)C(N)=O has a reported melting point of 190 to 192 °C

----------
measurement-kind: melting point

Example results:
CCOc1ccnc2c1c(C(C)=O)cn2S(=O)(=O)c1ccccc1
151 to 153 °C
N#Cc1c(C(F)(F)F)ccc(F)c1N
100 to 102 °C
OC1C(COC2CC2)OC(n2cnc3c(NC4CCCC4)ncnc32)C1O (centres undefined)
126 to 128 °C

The recorded melting point for entry COC(=O)[C@@H]1Cc2ccccc2N1C(=O)[C@H](CC(=O)OCc1ccccc1)NC(=O)C(F)(F)F equals 88 to 90 °C
